Cited source for all entries: paper PMC8463279

- protocol summary: Measurement of solubility
- Type: physicochemical
- reported conditions: dichloromethane, organic solvent or mixture, thermodynamic from solid
Please go through the items and note down their solubility at 24 h.
Give bare numbers, in mM.

Solved entries:
O=C1C(O)=C([C@H]2CC[C@H](c3ccc(Cl)cc3)CC2)C(=O)c2ccccc21 [Atovaquone, atovaquone, reference compound]
29
CCCN(C)Cc1cc(-c2[nH]c3cccc(F)c3c(=O)c2C)ccc1Cc1ccc(OC(F)(F)F)cc1
64
CCCCCN(C)Cc1cc(-c2[nH]c3cccc(F)c3c(=O)c2C)ccc1Cc1ccc(OC(F)(F)F)cc1
370
Cc1c(-c2ccc(Cc3ccc(OC(F)(F)F)cc3)c(CN(C)C)c2)[nH]c2cccc(F)c2c1=O
19
Cc1c(-c2ccc(Cc3ccc(OC(F)(F)F)cc3)c(CN3CCCC3)c2)[nH]c2cccc(F)c2c1=O
30

Moving on to the next compound.
solubility at 24 h lookup needed for CCCCCCCN(C)Cc1cc(-c2[nH]c3cccc(F)c3c(=O)c2C)ccc1Cc1ccc(OC(F)(F)F)cc1 , thanks.
420

---

- tested on: PF12 bc1 complex (PF11 changes plus Y279S) (Saccharomyces cerevisiae, UniProt P00163, C133V/C134L/F296L/H141Y/I299L/L275F/M295V/R283K/V135P/Y136W/Y279S)
- protocol summary: Decylubiquinol-cytochrome c reductase activity, yeast bc1 mutant PF12
reported metric: IC50

IC50 lookup needed for CCCN(C)Cc1cc(-c2[nH]c3cccc(F)c3c(=O)c2C)ccc1Cc1ccc(OC(F)(F)F)cc1 [RYL-581] , thanks.
~1000 nM

---

- Tested on: P. falciparum strain GB4
- protocol summary: Parasites growth inhibition assay, strain GB4
- Assay type: cell-based
- reported conditions: Plasmodium falciparum
reported metric: EC50 (nM)
Numbers only, in nM.

Cc1c(-c2ccc(Cc3ccc(OC(F)(F)F)cc3)c(CN3CCCC3)c2)[nH]c2cccc(F)c2c1=O
1.41
CCCN(C)Cc1cc(-c2[nH]c3cccc(F)c3c(=O)c2C)ccc1Cc1ccc(OC(F)(F)F)cc1
0.23

Moving on to the next molecule.
EC50 lookup needed for Cc1c(-c2ccc(Cc3ccc(OC(F)(F)F)cc3)c(CN(C)C)c2)[nH]c2cccc(F)c2c1=O , thanks.
1.02

---

- tested on: PFQi4 bc1 complex with P. falciparum-like modifications in the Qi-site (Saccharomyces cerevisiae, UniProt P00163, A191L/F225L/I17L/I195F/I226L/L198I/L40F/M221F/Q22C/S20Y/S34F/V41F/Y16H)
- protocol summary: Decylubiquinol-cytochrome c reductase activity, yeast bc1 mutant PFQi4
reported metric: IC50

IC50 lookup needed for CCCN(C)Cc1cc(-c2[nH]c3cccc(F)c3c(=O)c2C)ccc1Cc1ccc(OC(F)(F)F)cc1 [RYL-581] , thanks.
~10 µM

---

Please go through the items and note down their solubility at 24 h.
- protocol summary: Measurement of solubility
- Assay type: physicochemical
- reported conditions: 0.01 mol/L HCl, pH 2, simulated gastric fluid, thermodynamic from solid
Numbers only, in µM.

Solved entries:
CCCCCN(C)Cc1cc(-c2[nH]c3cccc(F)c3c(=O)c2C)ccc1Cc1ccc(OC(F)(F)F)cc1
337
Cc1c(-c2ccc(Cc3ccc(OC(F)(F)F)cc3)c(CN3CCCC3)c2)[nH]c2cccc(F)c2c1=O
450

Provide reported solubility at 24 h for each item, in the same order as listed.
1. O=C1C(O)=C([C@H]2CC[C@H](c3ccc(Cl)cc3)CC2)C(=O)c2ccccc21 [Atovaquone, atovaquone, reference compound]
2. CCCCCCCN(C)Cc1cc(-c2[nH]c3cccc(F)c3c(=O)c2C)ccc1Cc1ccc(OC(F)(F)F)cc1
3. CCCN(C)Cc1cc(-c2[nH]c3cccc(F)c3c(=O)c2C)ccc1Cc1ccc(OC(F)(F)F)cc1
4. Cc1c(-c2ccc(Cc3ccc(OC(F)(F)F)cc3)c(CN(C)C)c2)[nH]c2cccc(F)c2c1=O

[0.6, 19.4, 428, 496]
